TARGET OF ASSAY: HLA-B*35:01
PROCEDURE TEXT: IEDB peptide-MHC binding, purified MHC/competitive/fluorescence; filed as Kd, often an IC50 or EC50 that approximates it; bounds were set here for any values at or beyond the usual limits of such assays
CONDITION PARAMETERS: source organism: Yersinia pestis Nepal516
READOUT LABEL: pKd
Give bare numbers, as −log10 of the molar value.

pKd recorded for this sequence, MVASQLARY , is 9.05

---

TARGET OF ASSAY: HLA-A*01:01
PROCEDURE TEXT: IEDB peptide-MHC binding, purified MHC/competitive/radioactivity; filed as Kd, often an IC50 or EC50 that approximates it; bounds were set here for any values at or beyond the usual limits of such assays
CONDITION PARAMETERS: source organism: Mammarenavirus machupoense
READOUT LABEL: Kd (µM)
Answers are plain numbers, in µM.

What the record says about LCEEGKVCY : Kd is 7.83

---

Would you kindly list pKd for each of these sequences?
TARGET OF ASSAY: HLA-A*11:01
PROCEDURE TEXT: IEDB peptide-MHC binding, purified MHC/direct/fluorescence; filed as Kd, often an IC50 or EC50 that approximates it; bounds were set here for any values at or beyond the usual limits of such assays
CONDITION PARAMETERS: source organism: Brucella melitensis
Numbers only, as −log10 of the molar value.

{"SEQUENCE INPUT": "RLWNGRRCR", "pKd": 4.94}

// RVISDGYFK : pKd value = 7.27

---

TARGET OF ASSAY: HLA-B*07:02
PROCEDURE TEXT: IEDB peptide-MHC binding, purified MHC/direct/fluorescence; filed as Kd, often an IC50 or EC50 that approximates it; bounds were set here for any values at or beyond the usual limits of such assays
CONDITION PARAMETERS: source organism: Haemophilus influenzae
READOUT LABEL: Kd (µM)
Answers are plain numbers, in µM.

Kd in this record for AILGVLATL : 12.7

---

TARGET OF ASSAY: HLA-A*30:01
PROCEDURE TEXT: IEDB peptide-MHC binding, purified MHC/competitive/fluorescence; filed as Kd, often an IC50 or EC50 that approximates it; bounds were set here for any values at or beyond the usual limits of such assays
CONDITION PARAMETERS: source organism: Vaccinia virus Copenhagen
pKd: −log10 of the molar value.
READOUT LABEL: pKd

Sample NRLKPRDFK ; pKd observed: ≤ 4.70

---

TARGET OF ASSAY: HLA-B*58:01
PROCEDURE TEXT: IEDB peptide-MHC binding, purified MHC/competitive/fluorescence; filed as Kd, often an IC50 or EC50 that approximates it; bounds were set here for any values at or beyond the usual limits of such assays
CONDITION PARAMETERS: source organism: Human immunodeficiency virus 1
READOUT LABEL: Kd (nM)
Answers are plain numbers, in nM.

The recorded Kd for KSLFNTVATLY is 2.8

---

TARGET OF ASSAY: HLA-A*01:01
PROCEDURE TEXT: IEDB peptide-MHC binding, purified MHC/competitive/radioactivity; filed as Kd, often an IC50 or EC50 that approximates it; bounds were set here for any values at or beyond the usual limits of such assays
CONDITION PARAMETERS: source organism: Dengue virus 2 Jamaica/1409/1983
READOUT LABEL: Kd

Some sequences with known Kd results, for comparison:
{"SEQUENCE INPUT": "ESEMIIPKNF", "Kd": "≥ 70.4 µM"}
{"SEQUENCE INPUT": "HTAEAGGRAY", "Kd": "≥ 70.4 µM"}

Turning now to a further sequence:
Record ITLTAALLLL has HLA-A*01:01 Kd equal to 5.94 µM

---

TARGET OF ASSAY: HLA-A*02:12
PROCEDURE TEXT: IEDB peptide-MHC binding, purified MHC/competitive/fluorescence; filed as Kd, often an IC50 or EC50 that approximates it; bounds were set here for any values at or beyond the usual limits of such assays
CONDITION PARAMETERS: source organism: Influenza A virus (A/Gf/HK/SSP607/2003(H9N2))
READOUT LABEL: Kd

Please fill in: Kd reported for AMITYITRK = ≥ 20 µM

---

TARGET OF ASSAY: HLA-B*39:01
PROCEDURE TEXT: IEDB peptide-MHC binding, purified MHC/competitive/fluorescence; filed as Kd, often an IC50 or EC50 that approximates it; bounds were set here for any values at or beyond the usual limits of such assays
CONDITION PARAMETERS: source organism: Vibrio parahaemolyticus AQ3810
READOUT LABEL: Kd

For HFIYHKREK the sequence record lists Kd as ≥ 20 µM

---

TARGET OF ASSAY: HLA-B*07:02
PROCEDURE TEXT: IEDB peptide-MHC binding, purified MHC/competitive/fluorescence; filed as Kd, often an IC50 or EC50 that approximates it; bounds were set here for any values at or beyond the usual limits of such assays
CONDITION PARAMETERS: source organism: Salmonella enterica subsp. enterica serovar Typhi
READOUT LABEL: pKd
Give bare numbers, as −log10 of the molar value.

Note to self: pKd recorded for FPPGTSLTI was 6.73

---

TARGET OF ASSAY: HLA-A*24:02
PROCEDURE TEXT: IEDB peptide-MHC binding, purified MHC/direct/fluorescence; filed as Kd, often an IC50 or EC50 that approximates it; bounds were set here for any values at or beyond the usual limits of such assays
CONDITION PARAMETERS: source organism: Yersinia pestis CA88-4125
READOUT LABEL: pKd
Numbers only, as −log10 of the molar value.

For record TFAWASFLW the listed pKd is 8.52

---

TARGET OF ASSAY: HLA-B*46:01
PROCEDURE TEXT: IEDB peptide-MHC binding, purified MHC/competitive/fluorescence; filed as Kd, often an IC50 or EC50 that approximates it; bounds were set here for any values at or beyond the usual limits of such assays
CONDITION PARAMETERS: source organism: SARS-CoV1
READOUT LABEL: Kd (nM)
Answers are plain numbers, in nM.

Sample KSYEHQTPF ; Kd observed: 46.9

---

TARGET OF ASSAY: HLA-B*18:01
PROCEDURE TEXT: IEDB peptide-MHC binding, purified MHC/direct/fluorescence; filed as Kd, often an IC50 or EC50 that approximates it; bounds were set here for any values at or beyond the usual limits of such assays
CONDITION PARAMETERS: source organism: Yersinia pestis CA88-4125
READOUT LABEL: Kd

Form field Kd for item KLLARFLFE on HLA-B*18:01: ≥ 20 µM

---

For each entry below, report its pKd value.
TARGET OF ASSAY: HLA-A*33:01
PROCEDURE TEXT: IEDB peptide-MHC binding, purified MHC/competitive/radioactivity; filed as Kd, often an IC50 or EC50 that approximates it; bounds were set here for any values at or beyond the usual limits of such assays
CONDITION PARAMETERS: source organism: Mammarenavirus brazilense
Answers are plain numbers, as −log10 of the molar value.

{"SEQUENCE INPUT": "MVNHSTYYV", "pKd": 6.09}

Now for a further sequence.
Sample SVTLDFTKFH ; pKd observed: 5.03

---

TARGET OF ASSAY: HLA-B*35:01
PROCEDURE TEXT: IEDB peptide-MHC binding, purified MHC/direct/fluorescence; filed as Kd, often an IC50 or EC50 that approximates it; bounds were set here for any values at or beyond the usual limits of such assays
CONDITION PARAMETERS: source organism: Pseudomonas sp. KIE171
READOUT LABEL: pKd
Give bare numbers, as −log10 of the molar value.

The measured pKd that VPWQEKTAS showed for HLA-B*35:01 is 8.48

---

TARGET OF ASSAY: HLA-B*08:01
PROCEDURE TEXT: IEDB peptide-MHC binding, purified MHC/competitive/radioactivity; filed as Kd, often an IC50 or EC50 that approximates it; bounds were set here for any values at or beyond the usual limits of such assays
CONDITION PARAMETERS: source organism: Dengue virus 3 Martinique/1243/1999
READOUT LABEL: Kd (nM)
Give bare numbers, in nM.

According to the records, this sequence RPTIEKDVDL displays Kd of 846

---

TARGET OF ASSAY: HLA-A*03:01
PROCEDURE TEXT: IEDB peptide-MHC binding, purified MHC/direct/fluorescence; filed as Kd, often an IC50 or EC50 that approximates it; bounds were set here for any values at or beyond the usual limits of such assays
CONDITION PARAMETERS: source organism: Influenza A virus (A/swine/Chiai/77-10/2001(H3N1))
READOUT LABEL: Kd

Data point: VSFDQNLDY ; Kd = 6.5 µM
